Every entry's value here was drawn from PubChem BioAssay AID1159580.

Assay: chemical genetic growth profiling, strain panel (AID 1159580);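 also: tested at 20 µM; growth read once vehicle control cultures reached saturation at 30 °C; 1 = growth at the plate median or of vehicle wells; lower values mean less growth of the strain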
Details: S. cerevisiae deletion strains, growth OD, locus YER123W, strain YCK3
Among all 5,500 compounds or so, about 2,000 (36%) were called active. Roughly 18% stayed inconclusive and do not appear here. Rule as the data show it: active = normalized growth mostly below about 0.91 (no sharp cut-off); inconclusive = no clear call, values can overlap the other calls; inactive = mostly above about 0.92. The list shows a part of the results.
Form entry, call: pick from Yes for active, No for inactive

> print(dat)
                                item.smiles  label.value
1   Nc1ccc(N2CCN(c3ccc(C(F)(F)F)cn3)CC2)nc1           No
2  Cc1nc(C(F)(F)F)ccc1C(=O)Sc1nnc(-c2ccc(C(F)(F)F)nc2C)o1           No

Next up:
Please state the recorded outcome for this compound: `CCCCc1ccc(N=CNO)c(C)c1`
Yes

---

Please provide measured normalized growth for the entries that follow.
Assay: chemical genetic growth profiling, strain panel (AID 1159580)
Details: S. cerevisiae deletion strains, growth OD, locus YLL001W, strain dnm1, hits give low values
In all, about 5,500 compounds went through this assay and about 2,000 (36%) were called active. Inconclusive results (about 18%) are left out. This is one part of the list.
One number for each entry.

Example entries begin here.
molecule	normalized growth
CC(C)CCCC(C)[C@H]1CCC2C3CC[C@H]4CC(=O)CC[C@]4(C)C3CC[C@@]21C (stereo not given in full)	0.987
Cn1c([N+](=O)[O-])cnc1COC(N)=O	1.03
COc1ccc(Cc2nccc3cc(OC)c(OC)cc23)cc1OC	1.01
C[C@]12CCC3C(CC[C@H]4CC(=O)CC[C@]34C)C1CCC2=O (stereo not given in full)	0.942
O=C1c2ccccc2-c2cccc3cccc1c23	0.89

Could you report normalized growth for every entry in the following list?
1. O=C(O)CCCN1C(=O)c2cccc3cccc(c23)C1=O
2. CCOc1ccc(Cc2nccc3cc(OCC)c(OCC)cc23)cc1OCC
3. COC(=O)C1=CO[C@@H](O[C@@H]2O[C@H](CO)[C@@H](O)[C@H](O)[C@H]2O)[C@@H]2[C@@H](C)[C@@H](O)C[C@H]12
4. CC(=O)N[C@@H](CC(=O)O)C(=O)O
5. COC(=O)C[C@H]1C(C)(C)[C@@H](OC(C)=O)[C@@H]2CC3C4CC(=O)O[C@@H](c5ccoc5)[C@]4(C)CCC3[C@@]1(C)C2=O (stereo not given in full)

1: 1.03; 2: 0.96; 3: 0.973; 4: 1.01; 5: 1.01

---

Assay: chemical genetic growth profiling, strain panel (AID 1159580)
Conditions: S. cerevisiae deletion strains, growth OD, locus YDR137W, strain rgp1
Screen size: about 5,500 compounds; about 2,000 (36%) were called active. Inconclusive results (about 18%) are left out. Cut-off read from the data, not from the text of the source: active = normalized growth mostly below about 0.91 (no sharp cut-off); inconclusive = no clear call, values can overlap the other calls; inactive = mostly above about 0.92. This is one part of the list.
Form entry, call: pick from Yes for active, No for inactive

Use the examples below as a reference point.
compound	label.value
CCOc1nc2cccc(C(=O)OC(C)OC(=O)OC3CCCCC3)c2n1Cc1ccc(-c2ccccc2-c2nn[nH]n2)cc1 (stereo not drawn)	Yes
CCCC(=O)Nc1ncnc2c1ncn2C1O[C@@H]2COP(=O)(O)O[C@H]2[C@H]1OC(=O)CCC (stereo partly drawn)	No
O=C1c2ccccc2C(=O)c2c(O)c(O)cc(O)c21	Yes
CCCc1nc(C(C)(C)O)c(C(=O)OCc2oc(=O)oc2C)n1Cc1ccc(-c2ccccc2-c2nn[nH]n2)cc1	No
CC(C)CCCC(C)[C@H]1CCC2C3CC[C@H]4CC(=O)CC[C@]4(C)C3CC[C@@]21C (stereo partly drawn)	No

Please state the recorded outcome for this compound: `CC(C)=CCc1c(O)cc2occ(-c3ccc4c(c3)OCO4)c(=O)c2c1O`
No

Please state the recorded outcome for this compound: `O=c1cc(-c2ccc(O)cc2)oc2cc(O[C@@H]3O[C@H](CO)[C@@H](O)[C@H](O)[C@H]3O[C@@H]3OC[C@](O)(CO)[C@H]3O)cc(O)c12`
No

---

Test: chemical genetic growth profiling, strain panel (AID 1159580)
Settings: S. cerevisiae deletion strains, growth OD, locus YDR334W, strain swr1, hits give low values
Screen size: about 5,500 compounds; about 2,000 (36%) were called active. Inconclusive results (about 18%) are left out. The list shows a part of the results.
Please provide measured normalized growth for the entries that follow.
Numbers only.

Example entries begin here.
> print(dat)
                                   compound  number
1  Nc1ncnc2c1ncn2[C@@H]1O[C@H](CO)[C@@H](O)[C@@H]1O    1.01
2  CCCc1nc(C(C)(C)O)c(C(=O)OCc2oc(=O)oc2C)n1Cc1ccc(-c2ccccc2-c2nn[nH]n2)cc1   0.945
3  CCOc1nc2cccc(C(=O)OC(C)OC(=O)OC3CCCCC3)c2n1Cc1ccc(-c2ccccc2-c2nn[nH]n2)cc1 (stereo unspecified)    1.03
4                      CNC(=O)CSP(=S)(OC)OC    1.02
5  CCCCC(=O)N(Cc1ccc(-c2ccccc2-c2nn[nH]n2)cc1)[C@H](C(=O)O)C(C)C   0.987

Read the next record carefully.
What value of normalized growth has been recorded for this entry: CC(C(=O)O)c1ccc(N2Cc3ccccc3C2=O)cc1 (stereo unspecified)
0.986

---

Experiment: chemical genetic growth profiling, strain panel (AID 1159580);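 also: tested at 20 µM; growth read once vehicle control cultures reached saturation at 30 °C; 1 = growth at the plate median or of vehicle wells; lower values mean less growth of the strain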
Details: S. cerevisiae deletion strains, growth OD, locus YFR003C, strain YPI1
Screen size: about 5,500 compounds; about 2,000 (36%) were called active. Not shown: some 18% with an inconclusive outcome. No stated cut-off is given here; in the data, active means normalized growth mostly below about 0.91 (no sharp cut-off); inconclusive means no clear call, values can overlap the other calls; inactive means mostly above about 0.92. This is one part of the list.
Form entry, call: pick from active, inactive

Please state the recorded outcome for this compound: `COC(=O)c1ccc(Oc2c(C(F)(F)F)oc3cc(O)ccc3c2=O)cc1`
inactive

Please state the recorded outcome for this compound: `O=C(NCc1ccc(F)c(Cl)c1)Nc1csc([N+](=O)[O-])c1`
inactive

---

Assay: chemical genetic growth profiling, strain panel (AID 1159580);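 also: tested at 20 µM; growth read once vehicle control cultures reached saturation at 30 °C; 1 = growth at the plate median or of vehicle wells; lower values mean less growth of the strain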
Conditions: S. cerevisiae deletion strains, growth OD, locus YML032C, strain rad52
Screen size: about 5,500 compounds; about 2,000 (36%) were called active. Not shown: some 18% with an inconclusive outcome. Cut-off read from the data, not from the text of the source: active = normalized growth mostly below about 0.91 (no sharp cut-off); inconclusive = no clear call, values can overlap the other calls; inactive = mostly above about 0.92. The list shows a part of the results.
Form entry, call: pick from class 1 for active, class 0 for inactive

> print(dat)
                                   molecule  label.value
1                O=C(O)c1cc2cc(Cl)ccc2[nH]1      class 0
2  Nc1ncnc2c1ncn2[C@@H]1O[C@H](CO)[C@@H](O)[C@@H]1O      class 0
3  CCCCC(=O)N(Cc1ccc(-c2ccccc2-c2nn[nH]n2)cc1)[C@H](C(=O)O)C(C)C      class 0
4  CC(C)CCCC(C)C1CCC2C3CCC4CC(=O)CCC4(C)C3CCC12C (stereo not given)      class 0
5  CCOc1nc2cccc(C(=O)OC(C)OC(=O)OC3CCCCC3)c2n1Cc1ccc(-c2ccccc2-c2nn[nH]n2)cc1 (stereo not given)      class 0
6  CCCc1nc(C(C)(C)O)c(C(=O)OCc2oc(=O)oc2C)n1Cc1ccc(-c2ccccc2-c2nn[nH]n2)cc1      class 0

Please state the recorded outcome for this molecule: `CC(C)=CCOc1cc2oc(=O)ccc2cc1O`
class 1

Please state the recorded outcome for this molecule: `COc1ccc2ccc(=O)oc2c1CC=C(C)C`
class 1

Please state the recorded outcome for this molecule: `COc1cc2ccc(=O)oc2c(O)c1O`
class 0

Please state the recorded outcome for this molecule: `Cc1cc(C)nc(NS(=O)(=O)c2ccc(N)cc2)n1`
class 0

---

Please provide measured normalized growth for the entries that follow.
Assay: chemical genetic growth profiling, strain panel (AID 1159580);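 also: tested at 20 µM; growth read once vehicle control cultures reached saturation at 30 °C; 1 = growth at the plate median or of vehicle wells; lower values mean less growth of the strain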
Settings: S. cerevisiae deletion strains, growth OD, locus YLR113W, strain HOG1, hits give low values
About 2,000 (36%) of roughly 5,500 compounds were called active. Inconclusive results (about 18%) are left out. The list shows a part of the results.
One number for each entry.

> print(dat)
                                   compound             metric  number
1            O=C(Oc1ccc(C2SCCS2)cc1)c1cccs1  normalized growth   0.884
2  C[C@]12C=CC(=O)C=C1CCC1C2CC[C@]2(C)C(=O)CCC12 (stereo partly specified)  normalized growth   0.966

Could you report normalized growth for every entry in the following list?
1. CC(=O)OCC(=O)[C@@]1(O)CCC2C3CCC4=CC(=O)CC[C@]4(C)[C@@]3(F)[C@@H](O)C[C@@]21C (stereo partly specified)
2. COc1ccc(/C(C#N)=C2C=C/C(=N/O)C(Cl)=C\2)cc1

1: 0.992; 2: 0.851

Could you report normalized growth for every entry in the following list?
1. CCOc1nc2cccc(C(=O)OC(C)OC(=O)OC3CCCCC3)c2n1Cc1ccc(-c2ccccc2-c2nn[nH]n2)cc1 (stereo unspecified)
2. CCC1(c2ccccc2)OC(c2cc(Cl)cc(Cl)c2O)Nc2ccccc21 (stereo unspecified)

1: 1.03; 2: 0.539

Could you report normalized growth for every entry in the following list?
1. CC(C)(CO)[C@@H](O)C(=O)NCCC(=O)O
2. C[C@]12C=CC(=O)C=C1CCC1C2C(=O)C[C@@]2(C)C1CC[C@]2(O)C(=O)CO (stereo partly specified)

1: 1.05; 2: 1.03

Could you report normalized growth for every entry in the following list?
1. N#CC(C#N)=NNc1ccc(-n2ccc(C(F)(F)F)n2)cc1
2. CC(C)(C)c1cc(C(=O)/C(C#N)=N\Nc2ccc(Cl)cc2)no1
3. CCCCC(=O)N(Cc1ccc(-c2ccccc2-c2nn[nH]n2)cc1)[C@H](C(=O)O)C(C)C
4. N#C/C(=C\c1ccc(O)cc1)C(=O)O

0.207
0.156
0.987
1.01

Could you report normalized growth for every entry in the following list?
1. CC(C)N=c1cc2n(-c3ccc(Cl)cc3)c3ccccc3nc-2cc1Nc1ccc(Cl)cc1
2. C[C@]12CCC3C(CC[C@H]4C[C@@H](O)CC[C@]34C)C1CCC2=O (stereo partly specified)
3. O=S(=O)(Nc1cc(-c2cccs2)nn1-c1ccc(I)cc1)c1cccc(F)c1
4. CCNc1nc(Cl)nc(NC(C)C)n1
5. CSc1nc(Sc2n[nH]c(-c3ccccc3)n2)cc(Sc2n[nH]c(-c3ccccc3)n2)n1
6. CCC(=O)O[C@H]1CCC2C3CCc4cc(O)ccc4C3CC[C@@]21C (stereo partly specified)
7. CN(C)CC(=O)OC[C@@H](O)[C@@H](O)[C@H](O)[C@@H](O)C(=O)O
8. CCCc1nc(C(C)(C)O)c(C(=O)OCc2oc(=O)oc2C)n1Cc1ccc(-c2ccccc2-c2nn[nH]n2)cc1

1: 0.807; 2: 1.01; 3: 0.848; 4: 0.993; 5: 0.855; 6: 0.287; 7: 0.956; 8: 0.987

Could you report normalized growth for every entry in the following list?
1. CC(NC(=S)Nc1ccc(Oc2ccc(Cl)cc2)cc1)c1ccccc1 (stereo unspecified)
2. CCOC(=O)C(NC(C)=O)(Nc1ccc(F)c(Cl)c1)C(F)(F)F (stereo unspecified)
3. Cc1cccc(N(C)C(=S)Oc2ccc3ccccc3c2)c1
4. COc1ccc(-c2cc(NS(=O)(=O)c3cccc(F)c3)n(-c3ccc(Cl)c(Cl)c3)n2)cc1
5. CN(C)c1nc(=S)ss1
6. FC(F)(F)COCC(F)(F)F

1: 0.923; 2: 1.11; 3: 0.91; 4: 0.811; 5: 0.351; 6: 0.999

Could you report normalized growth for every entry in the following list?
1. OC[C@@H](O)C(O[C@@H]1O[C@H](CO)[C@H](O)[C@H](O)[C@H]1O)[C@H](O)[C@@H](O)CO (stereo partly specified)
2. N/C(=N/OC(=O)c1ccccc1Cl)c1cccc(CS(=O)(=O)c2ccc(Cl)cc2)c1
3. CC(=O)Oc1ccc2c(c1)CCC1C2CC[C@@]2(C)C1CC[C@@H]2OC(C)=O (stereo partly specified)
4. COc1cc2ccc(=O)oc2c2ccoc12
5. COc1ccc2c(c1)[nH]c1c(C)nccc12
6. NNC(=O)COc1ccc(C2SCCS2)cc1
7. O=S(=O)(Nc1ccc(-n2nc(C(F)(F)F)cc2-c2cccs2)cc1)c1ccc(F)cc1

1. 1.04
2. 0.996
3. 0.911
4. 1.09
5. 1
6. 0.171
7. 0.938

Could you report normalized growth for every entry in the following list?
1. CC(C)(O)CC[C@@H](O)[C@](C)(O)C1CC[C@@]2(O)C3=CC(=O)C4C[C@@H](O)[C@@H](O)C[C@]4(C)C3CC[C@]12C (stereo partly specified)
2. CC1(C)S[C@@H]2[C@H](NC(=O)COc3ccccc3)C(=O)N2[C@H]1C(=O)O
3. CC1=C2CCC3C(CC[C@]4(C)C(=O)CCC34)[C@@]2(C)CCC1=O (stereo partly specified)
4. O=C(O)c1cccc2cccc(C(=O)O)c12
5. CC(=O)OC1CCC2C3CCc4cc(O)ccc4C3CCC12C (stereo unspecified)
6. N#C/C(=N/Nc1ccc(Cl)cc1)C(=O)C1CC1
7. O=C(O)c1cc2cc(Cl)ccc2[nH]1
8. CCCCCc1ccc(-c2nc(SCC(C)=O)n[nH]2)cc1

[1.02, 0.994, 0.974, 0.184, 0.918, 0.567, 0.944, 0.585]
